- assay.details: Cytotoxicity against human COLO205 cells assessed as growth inhibition at 50 uM after 48 hrs by SRB assay
- Type: functional
- settings: COLO 205, 48 h, read-out: GI
// not fulfilled strictly below 50% in inhibition of growth at 50 µM; fulfilled otherwise

API: above_or_equal(metric=inhibition of growth at 50 µM, cutoff=50%) for item COc1cc(/C=C/C(=O)/C=C/c2ccccc2)ccc1OCc1cn(CCCCOc2cc(=O)oc3ccccc23)nn1
not fulfilled

API: above_or_equal(metric=inhibition of growth at 50 µM, cutoff=50%) for item COc1ccc(/C=C/C(=O)/C=C/c2ccc(OCc3cn(CCOc4cc(=O)oc5ccccc45)nn3)c(OC)c2)cc1OC
fulfilled

API: above_or_equal(metric=inhibition of growth at 50 µM, cutoff=50%) for item COc1cccc(/C=C/C(=O)/C=C/c2ccc(OCc3cn(CCOc4cc(=O)oc5ccccc45)nn3)c(OC)c2)c1
fulfilled

API: above_or_equal(metric=inhibition of growth at 50 µM, cutoff=50%) for item COc1ccccc1/C=C/C(=O)/C=C/c1ccc(OCc2cn(CCOc3cc(=O)oc4ccccc34)nn2)c(OC)c1
fulfilled

API: above_or_equal(metric=inhibition of growth at 50 µM, cutoff=50%) for item COc1cc(/C=C/C(=O)/C=C/c2cccs2)ccc1OCc1cn(CCOc2cc(=O)oc3ccccc23)nn1
fulfilled

API: above_or_equal(metric=inhibition of growth at 50 µM, cutoff=50%) for item COc1cc(/C=C/C(=O)/C=C/c2cc(OC)c(OC)c(OC)c2)ccc1OCc1cn(CCCCOc2cc(=O)oc3ccccc23)nn1
fulfilled

API: above_or_equal(metric=inhibition of growth at 50 µM, cutoff=50%) for item COc1ccc(/C=C/C(=O)/C=C/c2ccc(OCc3cn(CCCCCOc4cc(=O)oc5ccccc45)nn3)c(OC)c2)cc1
not fulfilled

API: above_or_equal(metric=inhibition of growth at 50 µM, cutoff=50%) for item COc1cccc(/C=C/C(=O)/C=C/c2ccc(OCc3cn(CCCCCOc4cc(=O)oc5ccccc45)nn3)c(OC)c2)c1
not fulfilled

API: above_or_equal(metric=inhibition of growth at 50 µM, cutoff=50%) for item COc1ccc(/C=C/C(=O)/C=C/c2ccc(OCc3cn(CCCOc4cc(=O)oc5ccccc45)nn3)c(OC)c2)cc1
fulfilled

API: above_or_equal(metric=inhibition of growth at 50 µM, cutoff=50%) for item COc1cc(/C=C/C(=O)/C=C/c2ccccc2)ccc1OCc1cn(CCCCCOc2cc(=O)oc3ccccc23)nn1
not fulfilled

API: above_or_equal(metric=inhibition of growth at 50 µM, cutoff=50%) for item COc1cc(/C=C/C(=O)/C=C/c2cc(OC)c(OC)c(OC)c2)ccc1OCc1cn(CCCOc2cc(=O)oc3ccccc23)nn1
fulfilled

API: above_or_equal(metric=inhibition of growth at 50 µM, cutoff=50%) for item COc1cc(/C=C/C(=O)/C=C/c2cc(OC)c(OC)c(OC)c2)ccc1OCc1cn(CCOc2cc(=O)oc3ccccc23)nn1
fulfilled

API: above_or_equal(metric=inhibition of growth at 50 µM, cutoff=50%) for item COc1cc(/C=C/C(=O)/C=C/c2ccco2)ccc1OCc1cn(CCCOc2cc(=O)oc3ccccc23)nn1
fulfilled

API: above_or_equal(metric=inhibition of growth at 50 µM, cutoff=50%) for item COc1cc(/C=C/C(=O)/C=C/c2cccc3ccccc23)ccc1OCc1cn(CCCOc2cc(=O)oc3ccccc23)nn1
fulfilled
